target: Human Cav2.2 channels (Homo sapiens, UniProt Q00975); construct: expressed in transfected cells; assay: Fluorescent assay for Cav2.2 channels using potassium depolarization to initiate channel opening; type: cell-based; details: 10 μM compound; read-out: Cav 2.2 Activity % Inh at 10 μM
Sequence (Q00975 whole entry): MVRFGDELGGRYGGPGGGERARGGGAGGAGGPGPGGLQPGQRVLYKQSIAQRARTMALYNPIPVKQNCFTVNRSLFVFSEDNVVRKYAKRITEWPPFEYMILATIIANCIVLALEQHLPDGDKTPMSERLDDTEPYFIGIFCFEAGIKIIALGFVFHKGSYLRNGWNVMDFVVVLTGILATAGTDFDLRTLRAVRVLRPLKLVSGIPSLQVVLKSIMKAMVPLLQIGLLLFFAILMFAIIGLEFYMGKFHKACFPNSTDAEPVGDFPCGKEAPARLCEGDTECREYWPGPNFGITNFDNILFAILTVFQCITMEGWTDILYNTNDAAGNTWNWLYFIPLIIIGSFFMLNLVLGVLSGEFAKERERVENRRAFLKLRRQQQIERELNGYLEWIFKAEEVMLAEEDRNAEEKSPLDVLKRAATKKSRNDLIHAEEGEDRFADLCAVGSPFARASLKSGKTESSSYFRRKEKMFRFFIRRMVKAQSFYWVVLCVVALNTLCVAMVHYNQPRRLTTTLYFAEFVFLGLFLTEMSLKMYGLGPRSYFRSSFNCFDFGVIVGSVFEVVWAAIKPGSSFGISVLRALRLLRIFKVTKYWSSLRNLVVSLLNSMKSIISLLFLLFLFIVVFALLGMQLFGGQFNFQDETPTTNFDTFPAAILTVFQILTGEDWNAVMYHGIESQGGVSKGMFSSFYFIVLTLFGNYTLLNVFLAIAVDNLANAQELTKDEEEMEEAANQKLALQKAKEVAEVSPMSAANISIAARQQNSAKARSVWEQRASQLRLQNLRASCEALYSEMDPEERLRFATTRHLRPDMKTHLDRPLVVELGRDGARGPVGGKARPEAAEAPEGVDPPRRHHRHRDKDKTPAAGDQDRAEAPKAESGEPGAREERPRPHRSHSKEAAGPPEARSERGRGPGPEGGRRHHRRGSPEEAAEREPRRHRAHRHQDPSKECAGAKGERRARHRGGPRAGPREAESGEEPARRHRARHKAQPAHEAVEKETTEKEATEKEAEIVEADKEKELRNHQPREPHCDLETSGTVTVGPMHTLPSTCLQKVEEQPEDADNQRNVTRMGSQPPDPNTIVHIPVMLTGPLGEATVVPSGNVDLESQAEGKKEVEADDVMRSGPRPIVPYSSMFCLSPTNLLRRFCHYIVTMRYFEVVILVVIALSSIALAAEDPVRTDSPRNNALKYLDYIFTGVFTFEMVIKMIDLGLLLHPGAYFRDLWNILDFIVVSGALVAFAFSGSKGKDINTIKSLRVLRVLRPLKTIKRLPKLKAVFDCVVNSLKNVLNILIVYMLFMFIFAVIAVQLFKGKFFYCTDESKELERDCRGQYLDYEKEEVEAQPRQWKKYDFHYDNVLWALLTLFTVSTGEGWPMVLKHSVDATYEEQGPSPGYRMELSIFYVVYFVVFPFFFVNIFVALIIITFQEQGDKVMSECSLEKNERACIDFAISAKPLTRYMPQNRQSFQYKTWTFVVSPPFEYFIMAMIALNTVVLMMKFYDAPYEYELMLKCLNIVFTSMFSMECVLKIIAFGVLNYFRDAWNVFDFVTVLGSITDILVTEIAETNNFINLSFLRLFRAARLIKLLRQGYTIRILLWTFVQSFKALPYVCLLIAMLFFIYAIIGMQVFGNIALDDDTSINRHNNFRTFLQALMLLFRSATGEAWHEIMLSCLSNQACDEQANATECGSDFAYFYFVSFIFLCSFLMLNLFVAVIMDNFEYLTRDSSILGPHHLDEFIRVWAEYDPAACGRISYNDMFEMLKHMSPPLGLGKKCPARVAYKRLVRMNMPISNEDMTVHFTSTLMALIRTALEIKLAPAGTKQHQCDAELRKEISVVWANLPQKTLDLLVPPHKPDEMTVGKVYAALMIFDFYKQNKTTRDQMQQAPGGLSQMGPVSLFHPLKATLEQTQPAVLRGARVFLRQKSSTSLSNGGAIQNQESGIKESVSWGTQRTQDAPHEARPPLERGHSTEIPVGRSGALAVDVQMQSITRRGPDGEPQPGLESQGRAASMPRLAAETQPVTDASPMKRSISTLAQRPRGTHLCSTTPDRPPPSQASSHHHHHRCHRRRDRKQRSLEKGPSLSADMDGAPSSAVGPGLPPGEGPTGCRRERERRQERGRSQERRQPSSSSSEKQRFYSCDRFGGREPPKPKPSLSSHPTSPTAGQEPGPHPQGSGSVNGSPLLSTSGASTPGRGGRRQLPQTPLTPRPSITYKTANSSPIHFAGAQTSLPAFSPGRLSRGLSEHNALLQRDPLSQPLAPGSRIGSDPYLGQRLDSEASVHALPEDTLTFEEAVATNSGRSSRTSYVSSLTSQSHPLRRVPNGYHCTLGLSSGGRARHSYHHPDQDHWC
Sequence (P54289 25-1103 partner): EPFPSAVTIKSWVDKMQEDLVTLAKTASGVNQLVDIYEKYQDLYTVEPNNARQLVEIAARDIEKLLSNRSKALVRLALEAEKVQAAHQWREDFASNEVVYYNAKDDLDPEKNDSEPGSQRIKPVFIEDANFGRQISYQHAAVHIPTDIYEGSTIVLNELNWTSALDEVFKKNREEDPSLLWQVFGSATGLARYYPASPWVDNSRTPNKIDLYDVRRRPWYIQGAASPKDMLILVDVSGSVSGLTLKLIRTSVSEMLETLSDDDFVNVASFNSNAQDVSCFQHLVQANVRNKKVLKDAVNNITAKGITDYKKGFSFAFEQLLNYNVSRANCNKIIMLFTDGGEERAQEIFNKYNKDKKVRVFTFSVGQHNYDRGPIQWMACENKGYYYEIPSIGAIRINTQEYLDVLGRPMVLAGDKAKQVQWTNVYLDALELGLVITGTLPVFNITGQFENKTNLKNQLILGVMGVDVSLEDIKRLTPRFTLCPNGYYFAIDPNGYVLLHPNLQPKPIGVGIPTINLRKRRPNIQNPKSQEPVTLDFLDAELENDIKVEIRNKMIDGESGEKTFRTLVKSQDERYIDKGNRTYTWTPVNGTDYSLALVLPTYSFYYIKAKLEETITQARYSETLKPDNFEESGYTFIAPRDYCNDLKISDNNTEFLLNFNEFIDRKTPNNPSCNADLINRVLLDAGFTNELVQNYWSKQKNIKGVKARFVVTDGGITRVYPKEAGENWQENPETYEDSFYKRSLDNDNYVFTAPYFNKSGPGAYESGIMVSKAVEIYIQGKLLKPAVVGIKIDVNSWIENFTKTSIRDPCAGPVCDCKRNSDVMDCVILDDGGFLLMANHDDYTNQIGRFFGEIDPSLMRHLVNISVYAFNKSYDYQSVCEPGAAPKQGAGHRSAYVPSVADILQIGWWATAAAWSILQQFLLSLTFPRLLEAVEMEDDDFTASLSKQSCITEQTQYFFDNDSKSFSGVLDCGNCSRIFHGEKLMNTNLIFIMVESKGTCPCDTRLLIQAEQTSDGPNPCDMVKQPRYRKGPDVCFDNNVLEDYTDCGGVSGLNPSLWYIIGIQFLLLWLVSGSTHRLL
Sequence (P54284 whole entry partner): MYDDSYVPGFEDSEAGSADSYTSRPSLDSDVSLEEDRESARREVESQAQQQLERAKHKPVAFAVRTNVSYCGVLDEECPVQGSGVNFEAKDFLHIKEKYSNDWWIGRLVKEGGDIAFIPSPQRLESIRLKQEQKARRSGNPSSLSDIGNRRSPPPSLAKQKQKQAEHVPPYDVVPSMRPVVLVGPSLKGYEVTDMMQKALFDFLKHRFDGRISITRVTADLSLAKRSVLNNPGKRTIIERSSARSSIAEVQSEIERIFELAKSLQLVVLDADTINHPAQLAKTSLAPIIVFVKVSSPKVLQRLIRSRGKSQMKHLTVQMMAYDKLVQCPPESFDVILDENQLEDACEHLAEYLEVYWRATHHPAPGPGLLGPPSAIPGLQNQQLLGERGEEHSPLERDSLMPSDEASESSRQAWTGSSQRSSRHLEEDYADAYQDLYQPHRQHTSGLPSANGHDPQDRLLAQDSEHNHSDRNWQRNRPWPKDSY
READOUT: inhibition at 10 µM (%)

1. COc1ccc(CNC(=O)C2(NC(=O)c3cc(C(C)(C)C)c(OC)c(C(C)(C)C)c3)CCCCC2)cc1 [Compound 31]; 87.5
2. CC(C)(C#N)c1ccc(C(=O)NC2(C(=O)NCc3cccc(C(F)(F)F)c3)Cc3ccccc3C2)cc1 [Compound 55]; 89
3. Cc1cnc(CNC(=O)C2(NC(=O)c3cc(C(C)(C)C)c(O)c(C(C)(C)C)c3)CC2)cn1 [Compound 3]; 89.8
4. COc1ccc(CNC(=O)C2(NC(=O)c3cc(C(C)(C)C)nc(C(C)(C)C)c3)CCCC2)cc1 [Compound 89]; 90.8
5. COc1c(C(C)(C)C)cc(C(=O)NC2(C(=O)N3CCN(c4ccccc4)CC3)CCCCC2)cc1C(C)(C)C [Compound 82]; 92.6
6. COc1c(C(C)(C)C)cc(C(=O)NC2(C(=O)NCc3cc(C)n(C)n3)CCCCC2)cc1C(C)(C)C [Compound 85]; 87.7
